# Test system: PPARg:RXRa 90nM:30nM, anti-RXR (NR concentration 90 nM, RXRa partner concentration 30 nM)
# Protocol description: PBM binding z-score (relative to random genomic background probes); higher = stronger binding; sequences stand for … in GC…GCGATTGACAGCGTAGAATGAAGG
Fulfilled means recorded PBM binding z-score is 3 or above; Not fulfilled means it is below 3.

For this sequence, is measured PBM binding z-score 3 or higher? GCTGCTAGGTCAACTGATGTTCAGCTAAAGCTCG
Not fulfilled

***
Test whether the sequence TCTTGTAGTTCAACAGGAGGTTAAGAAAGATCGA records PBM binding z-score of 3 or higher.
Not fulfilled

Try this sequence too: GGAACGAGGGCAAAGTTGATATCATCTGTCGACG
Fulfilled

Would you mind doing CCGAGTAGTTTATGGGGCATTCAGGCAACGGTGA as well?
Not fulfilled

Cool, now AATACAGGGTCATCGCAGGCCAGAGTACGCACAG
Fulfilled

Do the same for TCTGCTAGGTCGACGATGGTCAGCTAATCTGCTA please
Not fulfilled
